Where do the numbers come from? From ChEMBL document CHEMBL4261528.

Form field: pIC50 (one value per entry).
test_summary: Inhibition of baker's yeast alpha-glucosidase preincubated for 15 to 20 mins followed by p-nitrophenyl-alpha-D-glucopyranoside substrate addition measured after 45 to 60 mins by spectrophotometric method
Set-up: species or system Saccharomyces cerevisiae
test_settings: read-out: IC50
The read-out pIC50 is expressed as -log10 of concentration in moles per litre.

>>> df
                                   compound  assay_metric  meas_value
0  Cc1ccc(C2CC(=O)c3ccccc3N2)cc1C (stereo not given)         pIC50        3.22
1  O=C1CC(c2cccs2)Nc2ccccc21 (stereo not given)         pIC50        3.42
2  COc1ccc(C2CC(=O)c3ccccc3N2)cc1 (stereo not given)         pIC50        3.52

Task: # query: pIC50 of entry O=C1CC(C2CC2)Nc2ccccc21 (stereo not given)
Output: 3.55

Task: Same again, this time with O=C1CC(c2ccccc2)Nc2ccccc21 (stereo not given)
Output: 3.16
